- assay system: CaRvs167
- assay summary: SPOT peptide array binding signal intensity (averaged, normalized) (arbitrary units (background-subtracted, floor 0; scale differs between SH3 domains)); higher = stronger binding of the SH3 domain to the peptide
Note to self: class labels come from recorded SPOT peptide array binding signal intensity, ranges listed here: low interval = under 20, middle interval = from 20 up to 200, high interval = 200 and over

Before answering, review these 5 worked examples.
1. KKAPPPVVKPKPRNF ... low interval
2. EVTPKVPERPSRRKT ... middle interval
3. VFQFQMPTTPISTKM ... middle interval
4. VQPTAAPATPPRHIS ... high interval
5. LLLLFVPDSPYDPAI ... low interval

Into which bin does this binder go? QGYPRQPQRPQRYHP low interval

What would you report for QLLNPNRRAPRRPLS ? middle interval

Another binder to check: SSSSTPPTLPPRRIE high interval

Now consider RTIRKLPLMSLSEYF and answer again. middle interval

Try this binder too: RRGPAPPPPPRASRP high interval

Entry QPPLPSSAPPIPTSH please low interval

Record: VLRFLGFPLPIFEKG low interval

Now try NPTKSPPPPPSPSTM . low interval

// repeat for PAPPPPPRASRPTPN and report high interval

What about KNRKNLPTIPIRLSG ? high interval
